These entries and their values trace back to the RNAGym collection of RNA variant scans (doi:10.7554/elife.80360).

B1: CPEB3 Ribozyme (parent)
chain: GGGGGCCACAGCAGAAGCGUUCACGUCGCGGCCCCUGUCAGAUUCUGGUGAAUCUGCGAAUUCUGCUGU

variants of: B1; test: self-cleavage, relative activity (ratio to wild type); higher = more cleavage; co-transcriptional
MEASUREMENT NAME: self-cleavage
Just the number, please, no unit attached.

Use these answered entries as a reference point.
U36A G65A
0.278
C33A A40U
0.375
U36G G68U
0.338
G28U U53C
0.157

Provide measured self-cleavage value, entry: U20G C66A
0.23

Provide measured self-cleavage value, entry: G48A G58C
0.98

Provide measured self-cleavage value, entry: C12U G14C
0.146

Provide measured self-cleavage value, entry: G1C A40U
0.195

Provide measured self-cleavage value, entry: A15C C27A
0.091
